molecular target: p38a activated, mitogen-activated protein kinase-activated protein kinase 2 (MAPKAP-K2 or MK2) enzyme (Homo sapiens (Human), UniProt P49137); test: MK2 Omnia continuous-read kinase assay for compound potency; details: [MK-2]=0.4 nM, [ATP]=10 μM, [ST3-Sox]=10 μM; room temperature
Sequence (P49137 whole entry): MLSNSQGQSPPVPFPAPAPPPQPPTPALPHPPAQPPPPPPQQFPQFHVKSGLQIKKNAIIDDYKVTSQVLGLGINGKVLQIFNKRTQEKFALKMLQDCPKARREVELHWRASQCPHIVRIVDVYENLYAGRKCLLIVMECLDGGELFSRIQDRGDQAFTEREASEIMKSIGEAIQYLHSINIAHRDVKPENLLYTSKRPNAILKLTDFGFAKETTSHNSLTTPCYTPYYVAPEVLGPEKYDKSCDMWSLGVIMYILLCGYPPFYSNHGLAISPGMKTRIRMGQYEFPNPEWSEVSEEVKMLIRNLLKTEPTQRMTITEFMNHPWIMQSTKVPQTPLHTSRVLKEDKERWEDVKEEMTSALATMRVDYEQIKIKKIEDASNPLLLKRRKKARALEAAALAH
measure: IC50 (nM)

>  <molecule>
COCc1nc(Cl)cc(-c2ccc3c(ccc4sc5c(c43)NC[C@@H](C)NC5=O)n2)n1 [Example I-7]

>  <IC50 / nM>
6

$$$$
>  <molecule>
C=C(F)c1cccc(-c2ccc3c(ccc4sc5c(c43)NC[C@@H](C)NC5=O)n2)n1 [Example I-90]

>  <IC50 / nM>
460

$$$$
>  <molecule>
C=Cc1cccc(-c2ccc3c(ccc4sc5c(c43)NC[C@@H](C)NC5=O)n2)n1 [Example I-54]

>  <IC50 / nM>
61

$$$$
>  <molecule>
C=Cc1cc(-c2ccc3c(ccc4sc5c(c43)NC[C@@H](C)NC5=O)n2)c(C)cn1 [Example I-109]

>  <IC50 / nM>
4

$$$$
>  <molecule>
C/C=C\c1ncc(COCC)c(-c2ccc3c(ccc4sc5c(c43)NC[C@@H](C)NC5=O)n2)n1 [Example I-49]

>  <IC50 / nM>
474

$$$$
>  <molecule>
C=Cc1nc(-c2ccc3c(ccc4sc5c(c43)NC[C@@H](C)NC5=O)n2)nn1C [Example I-208]

>  <IC50 / nM>
285

$$$$
>  <molecule>
C=Cc1cncc(-c2ccc3c(ccc4sc5c(c43)NC[C@@H](C)NC5=O)n2)n1 [Example I-163]

>  <IC50 / nM>
109

$$$$
>  <molecule>
C#Cc1cc(-c2ccc3c(ccc4sc5c(c43)NC[C@@H](C)NC5=O)n2)c(N(C)C)nn1 [Example I-105]

>  <IC50 / nM>
118

$$$$

(I) C=Cc1ncn(-c2ccc3c(ccc4sc5c(c43)NC[C@@H](C)NC5=O)n2)n1 [Example I-207]
(II) C[C@@H]1CNc2c(sc3ccc4nc(-n5c(Br)nc(Cl)c5Cl)ccc4c23)C(=O)N1 [Example I-250]
Hi, I'm comparing I with II and wondering which one has the bigger number for IC50. Any idea? The response must carry the label of the picked entry.
II

(1) C[C@@H]1CNc2c(sc3ccc4nc(-c5cc(Cl)ncc5F)ccc4c23)C(=O)N1 [Example I-69]
(2) C[C@@H]1CNc2c(sc3ccc4nc(-c5nc(Cl)ncc5COC5(C)CCC5)ccc4c23)C(=O)N1 [Example I-27]
Hi, I'm comparing 1 with 2 and wondering which one has the bigger number for IC50. Any idea? The response must carry the label of the picked entry.
2

(A) C#Cc1nc(C#CC(C)(C)N)cc(-c2ccc3c(ccc4sc5c(c43)NC[C@@H](C)NC5=O)n2)n1 [Example I-65]
(B) C=Cc1cnn(C)c1-c1ccc2c(ccc3sc4c(c32)NC[C@@H](C)NC4=O)n1 [Example I-146]
// pick min by IC50: A , B The response must carry the label of the picked entry.
A
(A: 132 nM, B: 499 nM)

(P) C=C(c1cncc(-c2ccc3c(ccc4sc5c(c43)NC[C@@H](C)NC5=O)n2)n1)C(F)(F)F [Example I-225]
(Q) C=C(C)c1ncc(COCC)c(-c2ccc3c(ccc4sc5c(c43)NC[C@@H](C)NC5=O)n2)n1 [Example I-50]
// pick min by IC50: P , Q The response must carry the label of the picked entry.
P
(P: 19 nM, Q: 1000 nM)

(I) [2H]C([2H])([2H])C(O)c1cnc(C=C)cc1-c1ccc2c(ccc3sc4c(c32)NC[C@@H](C)NC4=O)n1 (stereo partly drawn) [Example I-259]
(II) C#Cc1cc(-c2ccc3c(ccc4sc5c(c43)NC[C@@H](C)NC5=O)n2)c(C)cn1 [Example I-111]
(III) CC#Cc1nccc(-c2ccc3c(ccc4sc5c(c43)NC[C@@H](C)NC5=O)n2)n1 [Example I-53]
(IV) C#Cc1cc(-c2ccc3c(ccc4sc5c(c43)NC[C@@H](C)NC5=O)n2)nc(COCC)n1 [Example I-39]
# rank_down: sort by IC50, max first Reply with the labels, ordered as the question asks.
III, II, I, IV
(III: 213 nM, II: 104 nM, I: 15 nM, IV: 8 nM)

(P) CCOCc1nc(Cl)cc(-c2ccc3c(ccc4sc5c(c43)NC[C@@H](C)NC5=O)n2)n1 [Example I-30]
(Q) C=Cc1nscc1-c1ccc2c(ccc3sc4c(c32)NC[C@@H](C)NC4=O)n1 [Example I-228]
(R) C#Cc1cc(-c2ccc3c(ccc4sc5c(c43)NC[C@@H](C)NC5=O)n2)cc(N2CCCCC2)n1 [Example I-178]
(S) Cc1cnc(CC#N)cc1-c1ccc2c(ccc3sc4c(c32)NC[C@@H](C)NC4=O)n1 [Example I-267]
# rank_down: sort by IC50, max first Reply with the labels, ordered as the question asks.
S, R, Q, P

(1) C=Cc1nc(C(=O)OCC)c(-c2ccc3c(ccc4sc5c(c43)NC[C@@H](C)NC5=O)n2)s1 [Example I-234]
(2) C#Cc1cc(-c2ccc3c(ccc4sc5c(c43)NC[C@@H](C)NC5=O)n2)c(OCCN2CCOCC2)nn1 [Example I-134]
// pick min by IC50: 1 , 2 The response must carry the label of the picked entry.
1

(a) [2H]C([2H])([2H])C(O)c1cnc(C=C)cc1-c1ccc2c(ccc3sc4c(c32)NC[C@@H](C)NC4=O)n1 (stereo partly drawn) [Example I-260]
(b) C=Cc1cc(-c2ccc3c(ccc4sc5c(c43)NC[C@@H](C)NC5=O)n2)nc(N2CCN(C)CC2)n1 [Example I-19]
(c) C[C@@H]1CNc2c(sc3ccc4nc(-c5nc(Cl)ncc5COC5COC5)ccc4c23)C(=O)N1 [Example I-20]
(d) C=Cc1cc(-c2ccc3c(ccc4sc5c(c43)NC[C@@H](CF)NC5=O)n2)c(C)cn1 [Example I-254]
# rank_down: sort by IC50, max first Reply with the labels, ordered as the question asks.
c, d, a, b

----------
biological target: p38a activated, mitogen-activated protein kinase-activated protein kinase 2 (MAPKAP-K2 or MK2) enzyme (Homo sapiens (Human), UniProt P49137); assay: MK2 Omnia continuous-read kinase assay for compound potency; details: [MK-2]=0.4 nM, [ATP]=10 μM, [ST3-Sox]=10 μM; room temperature
pIC50: −log10 of the molar value.
measure: pIC50

Example entries begin here.
>  <compound>
C#Cc1ncc(COCC)c(-c2ccc3c(ccc4sc5c(c43)NC[C@@H](C)NC5=O)n2)n1 [Example I-12]

>  <measure>
pIC50

>  <experimentalValue>
7.06

$$$$
>  <compound>
C[C@@H]1CNc2c(sc3ccc4nc(-c5ccnc(Cl)c5F)ccc4c23)C(=O)N1 [Example I-221]

>  <measure>
pIC50

>  <experimentalValue>
6.67

$$$$
>  <compound>
C[C@@H]1CNc2c(sc3ccc4nc(-c5cc(Cl)ncn5)ccc4c23)C(=O)N1 [Example I-11]

>  <measure>
pIC50

>  <experimentalValue>
8.70

$$$$
>  <compound>
Cc1cnc(Cl)nc1-c1ccc2c(ccc3sc4c(c32)NC[C@@H](C)NC4=O)n1 [Example I-6]

>  <measure>
pIC50

>  <experimentalValue>
6.04

$$$$
>  <compound>
C=C(CN1CCCC1)c1cc(-c2ccc3c(ccc4sc5c(c43)NC[C@@H](C)NC5=O)n2)ccn1 [Example I-116]

>  <measure>
pIC50

>  <experimentalValue>
8.22

$$$$
>  <compound>
C=Cc1cc(-c2ccc3c(ccc4sc5c(c43)NC[C@@H](C)NC5=O)n2)cc(N(C)CCOC)n1 [Example I-237]

>  <measure>
pIC50

>  <experimentalValue>
8.00

$$$$
>  <compound>
C=Cc1cc(-c2ccc3c(ccc4sc5c(c43)NCC(C)NC5=O)n2)cc(N2CCC3(CCC(=O)O3)CC2)n1 (racemic) [Example I-215]

>  <measure>
pIC50

>  <experimentalValue>
7.68

$$$$
>  <compound>
C#Cc1ncc(C)c(-c2ccc3c(ccc4sc5c(c43)NC[C@@H](C)NC5=O)n2)n1 [Example I-41]

>  <measure>
pIC50

>  <experimentalValue>
6.70

$$$$

(a) C[C@@H]1CNc2c(sc3ccc4nc(-c5cc(Cl)nnc5OCCN5CCOCC5)ccc4c23)C(=O)N1 [Example I-132]
(b) C[C@@H]1CNc2c(sc3ccc4nc(-c5cccc(Cl)n5)ccc4c23)C(=O)N1 [Example I-52]
(c) C=Cc1cc(-c2ccc3c(ccc4sc5c(c43)NC[C@@H](C)NC5=O)n2)cc(N2CCC(OC)CC2)n1 [Example I-158]
(d) C[C@@H]1CNc2c(sc3ccc4nc(-c5cc(Cl)nc(CO)n5)ccc4c23)C(=O)N1 [Example I-74]
# rank_down: sort by pIC50, max first Reply with the labels, ordered as the question asks.
d, c, b, a
(d: 8.40, c: 7.42, b: 6.94, a: 6.04)
